Record form. Attribute: normalized growth. Fill in for each entry.
assay: chemical genetic growth profiling, strain panel (AID 1159580);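 note: tested at 20 µM; growth read once vehicle control cultures reached saturation at 30 °C; 1 = growth at the plate median or of vehicle wells; lower values mean less growth of the strain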; details: S. cerevisiae deletion strains, growth OD, locus YLR357W, strain rsc2, stronger effect = lower value
The whole screen tested about 5,500 compounds, of which about 2,000 (36%) were called active. Roughly 18% stayed inconclusive and do not appear here. The list shows a part of the results.

Incoming: normalized growth for COc1cc([C@H]2Oc3cc([C@H]4Oc5cc(O)cc(O)c5C(=O)[C@@H]4O)ccc3O[C@@H]2CO)ccc1O ?
Outgoing: 1.03 (inactive)

Incoming: normalized growth for COc1ccc(C(=O)CC(=O)c2ccc(C(C)(C)C)cc2)cc1 ?
Outgoing: 1.03 (inactive)

Incoming: normalized growth for C[C@@H]1O[C@@H](O[C@H]2C[C@@H](O)[C@]3(CO)C4C(CC[C@]3(O)C2)[C@@]2(O)CC[C@H](C3=CC(=O)OC3)[C@@]2(C)C[C@H]4O)[C@H](O)[C@H](O)[C@H]1O (stereo not given in full) ?
Outgoing: 1.01 (inactive)

Incoming: normalized growth for NC(Cc1ccc(F)cc1)C(=O)O (stereo not given) ?
Outgoing: 1.01 (inactive)

Incoming: normalized growth for CN(C)CCC(c1ccc(Br)cc1)c1ccccn1 (stereo not given) ?
Outgoing: 0.972 (inactive)

Incoming: normalized growth for COc1cc(OC)c(OC)cc1C=O ?
Outgoing: 0.957 (inactive)

Incoming: normalized growth for CC1CCC2(OC1)OC1CC3C4CCC5C[C@@H](O)CCC5(C)C4=CCC3(C)C1[C@@H]2C (stereo not given in full) ?
Outgoing: 1 (inactive)

Incoming: normalized growth for C=C1[C@H]2CC[C@@]3(C)[C@H](c4ccoc4)OC(=O)C[C@]13O[C@H]1C[C@H](O)C(C)(C)[C@H](CC(=O)OC)[C@]12C ?
Outgoing: 1.03 (inactive)

Incoming: normalized growth for C=C1C(C2(C)C=CC(=O)C(C)(C)C2CC(=O)OC)CC[C@@]2(C)[C@H](c3ccoc3)OC(=O)C3OC132 (stereo not given in full) ?
Outgoing: 0.978 (inactive)

Incoming: normalized growth for Cc1ncc([N+](=O)[O-])n1CC(C)O (stereo not given) ?
Outgoing: 0.959 (inactive)

Incoming: normalized growth for C=C1C2CCC3(C)C(c4ccoc4)OC(=O)CC13OC1CC(OC(C)=O)C(C)(C)C(CC(=O)OC)C12C (stereo not given) ?
Outgoing: 1.02 (inactive)

Incoming: normalized growth for O=c1cc(-c2cc(O)c(O)c(O)c2)oc2cc(O)cc(O)c12 ?
Outgoing: 0.856 (inactive)

Incoming: normalized growth for O=c1cc(-c2ccccc2)oc2c(O)c(O)ccc12 ?
Outgoing: 0.914 (inactive)

Incoming: normalized growth for Nc1cc(-c2ccncc2)c[nH]c1=O ?
Outgoing: 0.972 (inactive)

Incoming: normalized growth for O=c1cc(-c2ccc(O)cc2)oc2cc(O)cc(O)c12 ?
Outgoing: 0.918 (inactive)

Incoming: normalized growth for CC(=O)OCC(=O)[C@@]1(O)[C@H](OC(C)=O)CC2C3CCC4=CC(=O)C=C[C@]4(C)[C@@]3(F)[C@@H](O)C[C@@]21C (stereo not given in full) ?
Outgoing: 0.974 (inactive)

Incoming: normalized growth for CC1=C2[C@H]3OC(=O)[C@@H](C)[C@@H]3CC[C@@]2(C)C=CC1=O ?
Outgoing: 0.948 (inactive)

Incoming: normalized growth for CCCC(CCC)C(=O)O ?
Outgoing: 1.06 (inactive)

Incoming: normalized growth for Cc1cc(=O)oc2c(O)c(O)ccc12 ?
Outgoing: 0.952 (inactive)

Incoming: normalized growth for C=C1C2CC[C@@]3(C)[C@H](c4ccoc4)OC(=O)C[C@]13O[C@H]1CC(O)C(C)(C)C(CC(=O)OC)[C@@]21C (stereo not given in full) ?
Outgoing: 0.998 (inactive)
